src = PubChem BioAssay

experiment: PSAC antagonists in infected red cells, primary screen, cell-based, P. falciparum Indochina, OD700, 1 h (AID 1154); details: P. falciparum Indochina infected RBC osmotic lysis, higher = more signal, called active from +8 up or from −8 down
# z-score >= 2 gives 1.0, anything below gives 0.0

- Molecule: "CC(CO)N1C(=O)[C@@H]2[C@H]3C(=O)OCC=C[C@H]3OC23C=CCN(Cc2ccccc2)C(=O)[C@@H]13 (stereo partly specified)"
  Class Name: 0.0
- Molecule: "C=CCNC(=O)[C@H]1[C@@H]2C(=O)O[C@@H](c3ccccc3)[C@@H](c3ccccc3)N2[C@@H](c2ccc(O)cc2)[C@]12C(=O)Nc1ccc(C#CC3(O)CCCCCC3)cc12"
  Class Name: 0.0
- Molecule: "O=C1O[C@@H](c2ccccc2)[C@@H](c2ccccc2)N2[C@@H](c3ccc(O)cc3)[C@]3(C(=O)Nc4ccc(C#CC5=CCCCC5)cc43)[C@@H](C(=O)NC[C@H](O)c3ccccc3)[C@H]12"
  Class Name: 0.0
- Molecule: "C=CCC(OC(C)=O)[C@@H]1[C@@H](N(Cc2ccc(-c3cccc(C(F)(F)F)c3)o2)C(=O)c2ccc(C)cc2)c2cc(OCCCO)ccc2N1C(=O)c1ccc2ccccc2c1 (stereo partly specified)"
  Class Name: 1.0
- Molecule: "C=CC[C@]1(C(=O)NCCN2CCOCC2)N=C(c2ccc(OCCCO)cc2)O[C@H]1c1ccccc1CN=[N+]=[N-]"
  Class Name: 1.0
- Molecule: "CCCC[C@@H]1C[C@H]1[C@@H](NC(=O)c1cccs1)c1ccc(C(F)(F)F)cc1"
  Class Name: 0.0

====

assay: CREB reporter modulators without forskolin, primary screen, cell-based, PC12, CRE-LacZ reporter, unstimulated (AID 1145); conditions: no forskolin, luminescence, 4.5 h, higher = more signal, called active from +8 up or from −8 down
Calls of active or inactive are those of the source.
Quantity: z-score

- Molecule: "COC(=O)c1c2oc(c1C(=O)OC)C(=O)N(Cc1ccccc1)Cc1cn(nn1)C[C@H](Cc1ccccc1)NC(=O)N[C@H](CO)CC2"
  Endpoint Value: "0.964 (inactive)"
- Molecule: "C=C(/C(=C/C[C@H](OC(=O)c1ccncc1)c1ccc(CO)o1)c1cc(C(=O)OC)ccc1OC)C(C)C"
  Endpoint Value: "0.621 (inactive)"
- Molecule: "COCCOC(=O)N1C(=O)[C@@]2(c3cc(C#Cc4ccc(OC)cc4)ccc31)[C@H](c1ccc(O)cc1)N1[C@H](c3ccccc3)[C@H](c3ccccc3)OC(=O)[C@H]1[C@@H]2C(=O)N1CCCCCCC1"
  Endpoint Value: "0.0653 (inactive)"
- Molecule: "COCCOC(=O)N1C(=O)[C@@]2(c3cc(C#CC4=CCCCC4)ccc31)[C@H](c1ccc(OCCO)cc1)N1[C@H](c3ccccc3)[C@H](c3ccccc3)OC(=O)[C@H]1[C@@H]2C(=O)N1CCN(c2ncccn2)CC1"
  Endpoint Value: "0.212 (inactive)"
- Molecule: "C=C(COC)/C(=C/C[C@H](OC(=O)c1ccncc1)c1ccccc1OCCO)c1cnc2ccccc2c1"
  Endpoint Value: "3.24 (inactive)"
- Molecule: "NC(N)=NCCCn1cc(CNC(=O)[C@@H](N)Cc2ccccc2)nn1"
  Endpoint Value: "-0.491 (inactive)"
- Molecule: "COc1ccccc1CN1C(=O)c2ccccc2[C@](Cc2ccccc2I)(C(=O)NCC(F)(F)F)[C@@H]1c1ccc(CO)cc1"
  Endpoint Value: "-0.735 (inactive)"
- Molecule: "[N-]=[N+]=NCc1ccccc1C[C@@]1(C(=O)N2CCCCC2)N=C(c2ccc(OCCCO)cc2)O[C@@H]1c1ccccc1"
  Endpoint Value: "-0.552 (inactive)"
- Molecule: "C=CCN1C(=O)[C@@]2(CCS(=O)(=O)c3ccccc3)N=C(c3ccc(OCCCO)cc3)O[C@H]2c2ccccc21"
  Endpoint Value: "-0.0808 (inactive)"
- Molecule: "COCCOC(=O)N1C(=O)[C@@]2(c3cc(C#CC4=CCCCC4)ccc31)[C@H](c1ccc(OCCO)cc1)N1[C@H](c3ccccc3)[C@H](c3ccccc3)OC(=O)[C@H]1[C@@H]2C(=O)NC[C@H](O)c1ccccc1"
  Endpoint Value: "0.354 (inactive)"
- Molecule: "CN1C(=O)C2C=CC(C(O)c3cccc(O)c3)N(Nc3ccccc3)C2C1=O (centres undefined)"
  Endpoint Value: "0.0501 (inactive)"
- Molecule: "COC(=O)[C@@]1(Cc2ccccc2)[C@H]2c3cc(C(=O)N(C)C)n(Cc4c(CO)[nH]cc(C)c4=O)c3C[C@H]2CN1C(=O)c1ccccc1"
  Endpoint Value: "-0.568 (inactive)"
- Molecule: "[N-]=[N+]=NCc1ccccc1C[C@@]1(C(=O)N2CCOCC2)N=C(c2ccc(OCCCO)cc2)O[C@@H]1c1ccccc1"
  Endpoint Value: "0.922 (inactive)"
- Molecule: "COc1ccc(-c2nc(-c3ccccc3)c3c(c2C)CO[Si]3(C(C)C)C(C)C)cn1"
  Endpoint Value: "-0.607 (inactive)"

====

test: E. coli growth modulation, two-sided OD650, primary screen, E. coli filamentation project, strain DRC41, 24 h (AID 1093); details: OD650, 24 h, higher = more signal, called active from +8 up or from −8 down;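 further: MC1000 strain lacking acrAB efflux and sulA so SOS filamentation is blocked; test concentration not given here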
Quick reference: z-score of the listed items.

- Molecule: "CCOC(=O)C[C@H]1[C@H](OC(=O)Cc2ccc3c(c2)OCO3)[C@@H](NC(=O)Cc2ccc(OC)cc2)c2cc(OCCCO)ccc2N1C(=O)c1ccc2ccccc2n1"
  z-score: 2.08
- Molecule: "Cc1cc(C)c(C(O)C2C=CC3C(=O)N(c4ccccc4)C(=O)C3N2Nc2ccc(C(C)C)cc2)c(C)c1 (stereo unspecified)"
  z-score: -1.87
- Molecule: "CCCCCCc1nc(C2CC2)cc2c1[Si](C(C)C)(C(C)C)OC2"
  z-score: -0.772
- Molecule: "COC(=O)[C@@]1(Cc2ccc(OC)cc2)[C@H]2c3cc(C(=O)N(C)C)n(Cc4ccc(Cl)c(C(F)(F)F)c4)c3C[C@H]2CN1C(=O)c1ccccc1"
  z-score: -0.397
- Molecule: "CC1=C[C@@]2(CO)C(=O)[C@]3(CO3)[C@@H]1[C@H]1[C@]2(C)C=C(CO)C(=O)[C@]12CO2"
  z-score: 0.179
- Molecule: "C=CCOC(=O)[C@H]1[C@@H]2C(=O)O[C@@H](c3ccccc3)[C@@H](c3ccccc3)N2[C@@H](c2ccc(OCCOC(=O)[C@H]3C[C@H]4C(=O)N[C@@H](CCCCNC(C)=O)C(=O)N4[C@H]3c3ccc(O)cc3)cc2)[C@]12C(=O)Nc1ccccc12"
  z-score: 3.05

====

experiment: fission yeast growth modulation, primary screen, strain 972, OD600, 24 h, no modulator (AID 1090);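 further: basal condition with compound alone and no growth modifier present; test concentration not given here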; details: S. pombe 972 growth, called active from +8 up or from −8 down
The source made the active and inactive calls.
Outcome codes: active, inactive

- Molecule: "C=CCN1Cc2ccccc2[C@H]2OC(c3ccc(OCCCO)cc3)=N[C@@]2(CC=C)C1=O"
  Class Name: "inactive"
- Molecule: "COC(=O)[C@@]1(Cc2ccccc2)[C@H]2c3cc(C(=O)N(C)C)n(CCc4ccc(O)c(OC)c4)c3C[C@H]2CN1C(=O)c1ccccc1"
  Class Name: "inactive"
- Molecule: "COCCCNC(=O)[C@@]1(Cc2ccccc2N=[N+]=[N-])COC(c2ccc(OCCCO)cc2)=N1"
  Class Name: "inactive"
- Molecule: "COc1cccc(/C=C/C=O)c1"
  Class Name: "active"
- Molecule: "COCCOC(=O)N1C(=O)[C@@]2(c3cc(C#CC4=CCCCC4)ccc31)[C@H](C(N)=O)[C@H]1C(=O)O[C@H](c3ccccc3)[C@H](c3ccccc3)N1[C@@H]2c1ccccc1OCCO"
  Class Name: "inactive"
- Molecule: "COc1ccccc1CN1C(=O)c2ccccc2[C@@]2(Cc3ccccc3N(CC(F)(F)F)C2=O)[C@@H]1c1ccc(CO)cc1"
  Class Name: "inactive"
- Molecule: "Cc1ccc(S[C@]2(C(=O)NCCCN(C)C)CC(=O)N(C3CCCCC3)[C@@H]2c2ccc(CO)cc2)cc1"
  Class Name: "inactive"
- Molecule: "O=C1OCCC/C=C\\[C@H]2OC34C=CCN(CCN5CCOCC5)C(=O)[C@H]3N(CCCCCCO)C(=O)[C@@H]4C12 (stereo partly drawn)"
  Class Name: "inactive"

====

test: small-molecule binders of probe aNOTCH3, primary screen, biochemical, small-molecule microarray, 635/667 nm fluorescence (AID 1120); details: higher = more signal;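 further: probe is a biotin-tagged antibody raised against NOTCH3 rather than NOTCH3 protein; score merges spot fluorescence near 667 nm with spot signal to noise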
Categories are defined by ranges of composite z-score, namely range 1 (below -0.06), range 2 (-0.06 to below 0.2), range 3 (0.2 or more)

- Compound: "COC(=O)Cn1c(C(=O)N(C)C)cc2c1C[C@H]1CN(C(=O)c3ccccc3)[C@@](Cc3ccc(F)cc3)(C(=O)OC)[C@@H]21"
  Class Name: "range 3"
- Compound: "N#Cc1ccc(C(O)C2C=CC3C(=O)N(c4ccccc4)C(=O)C3N2Nc2ccccc2)cc1 (centres undefined)"
  Class Name: "range 2"
- Compound: "CCOC(=O)C[C@H]1[C@H](OC(=O)Cc2ccc3c(c2)OCO3)[C@@H](NC(=O)CC(C)C)c2cc(OCCCO)ccc2N1C(=O)Cc1ccc(OC)cc1"
  Class Name: "range 2"
- Compound: "COc1ccc(CCN2C(=O)[C@@]3(Cc4ccccc42)c2ccccc2C(=O)N(Cc2ccccc2OC)[C@H]3c2ccc(CO)cc2)cc1"
  Class Name: "range 1"
- Compound: "COc1ccc([Si](C)(C)[C@@H]2[C@@H](CC(=O)N3Cc4ccccc4C[C@H]3CO)O[C@]3(C(=O)N(C)c4ccccc43)[C@H]2C)cc1"
  Class Name: "range 3"
- Compound: "CC1=C([C@H](O)CCc2ccccc2)[C@H](CO)[C@@H]2C(=O)N(C)C(=O)[C@@H]2C1"
  Class Name: "range 2"
- Compound: "O=C(NCC(F)(F)F)[C@@H]1c2ccccc2C(=O)N(Cc2ccc(OC(F)(F)F)cc2)[C@H]1c1ccc(CO)cc1"
  Class Name: "range 1"
- Compound: "O=C1O[C@@H](c2ccccc2)[C@@H](c2ccccc2)N2[C@@H](c3ccc(O)cc3)[C@]3(C(=O)Nc4ccc(C#CC5=CCCCC5)cc43)[C@@H](C(=O)NC[C@H](O)c3ccccc3)[C@H]12"
  Class Name: "range 3"
- Compound: "CC(C)C(CO)N1C(=O)[C@@H]2C3C(=O)OCCC/C=C\\[C@H]3OC23C=CCN(C(C)(C)C)C(=O)[C@@H]13 (some centres undefined)"
  Class Name: "range 1"
- Compound: "COc1ccc(-c2cc3c(c(CCc4ccccc4)n2)[Si](C(C)C)(C(C)C)OC3)cn1"
  Class Name: "range 1"
- Compound: "NC(=O)NCC#Cc1ccc2c(c1)[C@]1(C(=O)N2)[C@H](C(=O)O)[C@H]2C(=O)O[C@H](c3ccccc3)[C@H](c3ccccc3)N2[C@@H]1c1ccc(OCCO)cc1"
  Class Name: "range 1"
- Compound: "C=CC[C@@]1(C(=O)N2CCOCC2)N=C(c2ccc(OCCCO)cc2)O[C@@H]1c1ccccc1CN=[N+]=[N-]"
  Class Name: "range 3"
- Compound: "O=C1O[C@H](c2ccccc2)[C@H](c2ccccc2)N2[C@H]1[C@@H](C(=O)O)[C@]1(C(=O)Nc3ccc(C#CC4=CCCCC4)cc31)[C@H]2c1ccc(O)cc1"
  Class Name: "range 2"
- Compound: "C[N+](C)(C)CCCCCCNC(=O)[C@H]1C[C@H]2C(=O)N[C@@H](Cc3ccccc3)C(=O)N2[C@H]1c1ccc(O)cc1"
  Class Name: "range 2"
